# experimental-system: IKZF2 (Homo sapiens, UniProt Q96SW2+Q9UKS7)
# Sequence (Q9UKS7 whole entry): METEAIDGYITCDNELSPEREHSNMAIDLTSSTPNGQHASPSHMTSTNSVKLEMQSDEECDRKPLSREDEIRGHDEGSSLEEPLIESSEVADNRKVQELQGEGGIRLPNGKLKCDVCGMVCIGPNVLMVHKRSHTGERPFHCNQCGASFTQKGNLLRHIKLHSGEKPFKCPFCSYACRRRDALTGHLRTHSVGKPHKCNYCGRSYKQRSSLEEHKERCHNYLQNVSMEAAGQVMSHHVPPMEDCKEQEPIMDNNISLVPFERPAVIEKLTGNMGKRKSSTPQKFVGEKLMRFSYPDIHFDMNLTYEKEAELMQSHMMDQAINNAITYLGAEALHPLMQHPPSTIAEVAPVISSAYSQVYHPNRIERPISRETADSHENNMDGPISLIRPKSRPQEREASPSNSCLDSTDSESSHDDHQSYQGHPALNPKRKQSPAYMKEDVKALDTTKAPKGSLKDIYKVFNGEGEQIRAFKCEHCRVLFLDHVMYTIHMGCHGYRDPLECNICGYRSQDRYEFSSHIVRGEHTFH
# Sequence (Q96SW2 whole entry): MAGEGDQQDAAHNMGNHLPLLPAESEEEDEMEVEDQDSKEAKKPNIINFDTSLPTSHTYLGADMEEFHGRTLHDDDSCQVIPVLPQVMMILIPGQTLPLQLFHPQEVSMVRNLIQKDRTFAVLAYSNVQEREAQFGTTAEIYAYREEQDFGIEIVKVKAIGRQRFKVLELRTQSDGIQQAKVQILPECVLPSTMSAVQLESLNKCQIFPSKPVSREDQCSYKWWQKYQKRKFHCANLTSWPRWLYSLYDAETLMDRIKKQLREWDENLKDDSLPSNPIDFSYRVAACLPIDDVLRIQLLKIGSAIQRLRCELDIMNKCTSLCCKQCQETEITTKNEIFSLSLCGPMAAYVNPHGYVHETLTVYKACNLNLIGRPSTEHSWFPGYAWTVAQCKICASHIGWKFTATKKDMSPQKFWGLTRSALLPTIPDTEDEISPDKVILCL
# Sequence (Q16531 whole entry partner): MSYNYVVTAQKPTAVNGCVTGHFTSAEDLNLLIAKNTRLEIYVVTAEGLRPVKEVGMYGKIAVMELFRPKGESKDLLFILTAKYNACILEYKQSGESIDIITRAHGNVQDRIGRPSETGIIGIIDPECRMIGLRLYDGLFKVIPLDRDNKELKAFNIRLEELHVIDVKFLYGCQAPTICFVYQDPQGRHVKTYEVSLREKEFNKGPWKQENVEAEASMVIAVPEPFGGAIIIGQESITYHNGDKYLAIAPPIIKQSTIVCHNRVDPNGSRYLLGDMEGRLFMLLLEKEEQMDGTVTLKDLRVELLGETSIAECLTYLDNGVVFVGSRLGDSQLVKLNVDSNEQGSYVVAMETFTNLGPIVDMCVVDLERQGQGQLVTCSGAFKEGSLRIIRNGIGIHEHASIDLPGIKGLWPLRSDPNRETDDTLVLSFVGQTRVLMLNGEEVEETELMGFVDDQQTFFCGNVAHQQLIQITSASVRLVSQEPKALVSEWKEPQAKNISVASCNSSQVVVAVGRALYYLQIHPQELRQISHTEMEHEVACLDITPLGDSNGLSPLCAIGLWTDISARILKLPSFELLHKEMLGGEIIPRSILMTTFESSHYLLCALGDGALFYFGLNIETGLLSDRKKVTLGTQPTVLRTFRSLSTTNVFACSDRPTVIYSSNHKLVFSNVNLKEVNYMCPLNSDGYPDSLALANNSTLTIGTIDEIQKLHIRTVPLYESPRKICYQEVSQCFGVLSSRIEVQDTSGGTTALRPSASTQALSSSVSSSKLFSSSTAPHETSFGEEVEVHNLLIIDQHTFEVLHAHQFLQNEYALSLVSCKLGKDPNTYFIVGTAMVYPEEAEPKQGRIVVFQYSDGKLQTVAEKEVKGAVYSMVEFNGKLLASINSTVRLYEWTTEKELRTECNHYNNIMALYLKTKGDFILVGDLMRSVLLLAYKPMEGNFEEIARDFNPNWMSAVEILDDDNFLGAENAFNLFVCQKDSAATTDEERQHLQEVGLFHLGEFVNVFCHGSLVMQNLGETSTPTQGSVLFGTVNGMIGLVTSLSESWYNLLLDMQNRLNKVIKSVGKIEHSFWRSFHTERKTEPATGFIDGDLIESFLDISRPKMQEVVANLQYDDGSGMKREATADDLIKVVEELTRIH
# assay-procedure: Human whole blood IKZF2 degradation (flow cytometry, CD4/CD25/Foxp3+ Treg cells)
# Type: cell-based
# Set-up: endogenous in cells
# condition-notes: 24 hrs incubation, IKZF2 MFI in CD4/CD25/Foxp3+ Treg cells, flow cytometry
measured-property: Dmax
Be sure to follow the number with its unit.

Take a look at these entries with their results.
molecule: CCC(CC)N[C@H]1CCCC[C@@H]1Cc1ccc2c(c1)CN(C1CCC(=O)NC1=O)C2=O (stereo partly drawn)
experimental-system: IKZF2 (Homo sapiens, UniProt Q96SW2+Q9UKS7)
result: 98%
--
molecule: CC(C)(C)CCN[C@H]1CCCC[C@@H]1Cc1ccc2c(c1F)CN(C1CCC(=O)NC1=O)C2=O (stereo partly drawn)
experimental-system: IKZF2 (Homo sapiens, UniProt Q96SW2+Q9UKS7)
result: 97%
--
molecule: CN(C1CCC(F)(F)CC1)[C@H]1CCCC[C@@H]1Cc1ccc2c(c1F)CN(C1CCC(=O)NC1=O)C2=O (stereo partly drawn)
experimental-system: IKZF2 (Homo sapiens, UniProt Q96SW2+Q9UKS7)
result: 91%
--
molecule: O=C1CCC(N2Cc3cc(C[C@H]4CCCC[C@@H]4NC4CC5(CCC(F)(F)CC5)C4)ccc3C2=O)C(=O)N1 (stereo partly drawn)
experimental-system: IKZF2 (Homo sapiens, UniProt Q96SW2+Q9UKS7)
result: 94%

Data request: Returns the measured Dmax for the input molecule. Input: O=C1CCC(N2Cc3cc(O[C@H]4CCCC[C@@H]4NC4CCC(F)(F)CC4)ccc3C2=O)C(=O)N1 (stereo partly drawn)
Data returned: 97%

Data request: Returns the measured Dmax for the input molecule. Input: O=C1CCC(N2Cc3c(ccc(C[C@H]4OCCC[C@@H]4NC4CCC(C(F)F)CC4)c3F)C2=O)C(=O)N1 (single isomer, unassigned)
Data returned: 96%

Data request: Returns the measured Dmax for the input molecule. Input: [2H]C1(N[C@H]2CCCC[C@@H]2Cc2ccc3c(c2)CN(C2CCC(=O)NC2=O)C3=O)CCC(F)(F)CC1 (stereo partly drawn)
Data returned: 92%
